Field: pIC50. Provide a value for each of the compounds that follow.
molecular target: Chilo suppressalis GSTs; assay: Inhibition of total GSTs enzyme of Chilo suppressalis (CDNB method)
pIC50: −log10 of the molar value.

Prompt: Consider the compound O=C(COc1ccccc1)NNC(=O)c1cc(-c2ccccc2)nn1-c1ccccc1 [PXG5] and give its measured pIC50.
Completion: < 4.00

Prompt: Again, but for CC1CCC2(CC1)NC(=O)N(NC(=O)c1cc(-c3ccccc3)nn1-c1ccccc1)C2=O (stereo not drawn) [PXG16]
Completion: < 4.00

Prompt: Again, but for CC1(CCc2ccccc2)NC(=O)N(NC(=O)c2cc(-c3ccccc3)nn2-c2ccccc2)C1=O (stereo not drawn) [PXG15]
Completion: < 4.00
